# assay-text: Cytotoxicity against African green monkey Vero cells assessed as changes in cell morphology incubated for 3 to 6 days by light microscopy
# Assay type: cell-based
# run-parameters: chlorocebus sabaeus, time 3-6 day
MCC values, listed per item
experimental-endpoint: MCC (µg/mL)

> print(dat)
                               query.smiles  operator.symbol  number
1  CN1C(=O)CS/C1=N\NC(=O)c1[nH]c2ccc(F)cc2c1-c1ccccc1                =      20
2  CCN1C(=O)CS/C1=N\NC(=O)c1[nH]c2ccc(F)cc2c1-c1ccccc1                =      20
3  O=C(N/N=C1\SCC(=O)N1Cc1ccccc1)c1[nH]c2ccc(F)cc2c1-c1ccccc1                ≥      10
4  O=C(NNC(=S)NCc1ccccc1)c1[nH]c2ccc(F)cc2c1-c1ccccc1                =      10
5  CCCCNC(=S)NNC(=O)c1[nH]c2ccc(F)cc2c1-c1ccccc1                =      10

* * *

selectivity ratio values, listed per item
# assay-text: Selectivity index, ratio of MCC for human HeLa cells to EC50 for Human coxsackievirus B4 infected in human HeLa cells
# Type: toxicity, cell-based
experimental-endpoint: selectivity ratio

> print(dat)
                               query.smiles  result
1  CCNC(=S)NNC(=O)c1[nH]c2ccc(F)cc2c1-c1ccccc1      23
2  CNC(=S)NNC(=O)c1[nH]c2ccc(F)cc2c1-c1ccccc1       9
3  C=CCNC(=S)NNC(=O)c1[nH]c2ccc(F)cc2c1-c1ccccc1      13
4  CCCNC(=S)NNC(=O)c1[nH]c2ccc(F)cc2c1-c1ccccc1      18

* * *

# Test system: MT4
# assay-text: Cytotoxicity against human MT4 cells assessed as reduction in cell viability incubated for 3 to 6 days by MTS assay
# Format: cell-based
# run-parameters: time 3-6 day
CC50 values, listed per item
experimental-endpoint: CC50

> print(dat)
                               query.smiles  experimental.endpoint       result
1  CCCN1C(=O)CS/C1=N\NC(=O)c1[nH]c2ccc(F)cc2c1-c1ccccc1                   CC50  > 125 µg/mL
2  Cc1cn([C@H]2C[C@H](N=[N+]=[N-])[C@@H](CO)O2)c(=O)[nH]c1=O                   CC50   > 25 µg/mL
3  CCN1C(=O)CS/C1=N\NC(=O)c1[nH]c2ccc(F)cc2c1-c1ccccc1                   CC50  > 125 µg/mL
4  CN1C(=O)CS/C1=N\NC(=O)c1[nH]c2ccc(F)cc2c1-c1ccccc1                   CC50  > 125 µg/mL
5  C=CCN1C(=O)CS/C1=N\NC(=O)c1[nH]c2ccc(F)cc2c1-c1ccccc1                   CC50  > 125 µg/mL
